B1: tRNA (parent)
chain: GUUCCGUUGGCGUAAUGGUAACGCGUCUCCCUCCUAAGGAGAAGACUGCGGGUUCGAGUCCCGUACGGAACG

- Variants of: B1
- ASSAY: yeast fitness relative to wild type (ratio to wild type); higher = fitter; tRNA-Arg(CCU), competitive growth, 37 C, YPD
Variants at the floor of the assay were thinned out.
MEASURED_ATTRIBUTE: yeast fitness

Example results:
VAR	OBSERVED_VALUE
G10C A40U A57C A65U	≤ 0.5
G12C C34G	0.696
A20C A57C C60A	≤ 0.5
G17A G25C A65U	0.625
U7C C30U C61A	≤ 0.5

Req: Tell me the measured yeast fitness of C29U C33U C66U G67A , please.
Resp: 0.598

Req: Same lookup for A14U U16A C27G A40U A57U C66A , please.
Resp: ≤ 0.5

Req: Another variant to check: G6A C11A A43G G58A A65C C66U
Resp: ≤ 0.5
